Biological target: soluble guanylate cyclase (sGC) (Homo sapiens, UniProt Q02108+Q02153)
Construct: endogenously expressing soluble guanylate cyclase (sGC); endogenous in cells; host or cells: HEK293
Sequence (Q02153 whole entry): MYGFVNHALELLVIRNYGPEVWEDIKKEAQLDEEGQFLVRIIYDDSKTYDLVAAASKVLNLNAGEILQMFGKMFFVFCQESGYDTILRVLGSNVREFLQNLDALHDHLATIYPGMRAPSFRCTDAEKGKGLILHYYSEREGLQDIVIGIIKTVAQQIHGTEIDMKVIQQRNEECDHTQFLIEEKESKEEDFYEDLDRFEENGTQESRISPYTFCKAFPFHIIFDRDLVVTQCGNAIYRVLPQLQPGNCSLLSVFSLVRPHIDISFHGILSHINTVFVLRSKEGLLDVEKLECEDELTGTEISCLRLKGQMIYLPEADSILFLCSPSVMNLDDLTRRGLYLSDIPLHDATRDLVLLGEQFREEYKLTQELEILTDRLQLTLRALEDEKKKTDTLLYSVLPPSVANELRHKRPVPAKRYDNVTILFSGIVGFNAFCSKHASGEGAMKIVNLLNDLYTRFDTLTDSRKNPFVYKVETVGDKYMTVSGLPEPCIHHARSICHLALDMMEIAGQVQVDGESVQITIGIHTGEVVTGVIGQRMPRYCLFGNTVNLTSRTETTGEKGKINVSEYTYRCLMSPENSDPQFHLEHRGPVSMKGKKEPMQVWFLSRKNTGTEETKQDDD
Sequence (Q02108 whole entry): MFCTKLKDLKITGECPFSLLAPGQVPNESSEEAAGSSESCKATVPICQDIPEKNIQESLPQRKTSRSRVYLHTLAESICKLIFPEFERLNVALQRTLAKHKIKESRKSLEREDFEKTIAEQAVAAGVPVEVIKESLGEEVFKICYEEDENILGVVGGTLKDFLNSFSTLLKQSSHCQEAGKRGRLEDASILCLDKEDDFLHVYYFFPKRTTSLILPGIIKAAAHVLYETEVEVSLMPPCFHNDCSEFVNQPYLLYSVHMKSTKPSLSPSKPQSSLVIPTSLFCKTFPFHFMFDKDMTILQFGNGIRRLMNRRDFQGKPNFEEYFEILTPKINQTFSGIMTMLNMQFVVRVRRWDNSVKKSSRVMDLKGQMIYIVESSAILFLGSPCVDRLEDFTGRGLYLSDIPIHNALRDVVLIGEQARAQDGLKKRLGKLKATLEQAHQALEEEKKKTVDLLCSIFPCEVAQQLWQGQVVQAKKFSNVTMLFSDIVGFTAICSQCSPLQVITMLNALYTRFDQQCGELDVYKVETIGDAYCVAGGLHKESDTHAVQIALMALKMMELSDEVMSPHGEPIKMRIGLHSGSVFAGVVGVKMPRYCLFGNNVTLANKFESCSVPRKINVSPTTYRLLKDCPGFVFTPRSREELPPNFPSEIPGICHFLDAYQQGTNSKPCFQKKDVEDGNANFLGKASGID
Assay: sGC-HEK-cGMP assay with LC/MS detection
Type: cell-based
Conditions: HEK293 whole cells, LC/MS detection of cGMP, 10 μM DETA-NONOate; 50% of high control response (30 μM Compound Y); read-out: Absolute EC50 (nM)- binned (~)
READOUT NAME: EC50

compound=CC(C)(C(N)=O)C(=O)Nc1ccnc(-c2cc(-c3ccon3)n(Cc3ccccc3F)n2)n1 tested_target="soluble guanylate cyclase (sGC) (Homo sapiens, UniProt Q02108+Q02153)" measured="100 to 1000 nM"
compound=CC(=O)c1cc(-c2ncc(F)c(NCCO)n2)nn1Cc1ccccc1F tested_target="soluble guanylate cyclase (sGC) (Homo sapiens, UniProt Q02108+Q02153)" measured="> 1000 nM"
compound=CC(=O)c1cc(-c2ncc(F)c(N3CCOCC3)n2)nn1Cc1ccccc1F tested_target="soluble guanylate cyclase (sGC) (Homo sapiens, UniProt Q02108+Q02153)" measured="100 to 1000 nM"
compound="NC(=O)C(O)(CNc1nc(-n2cc(-c3ccon3)c(Cc3ccccc3F)n2)ncc1F)C(F)(F)F (centres unmarked)" tested_target="soluble guanylate cyclase (sGC) (Homo sapiens, UniProt Q02108+Q02153)" measured="100 to 1000 nM"
compound=CCC(N)(CC)CNc1nc(-c2cc(-c3ccon3)n(Cc3ccccc3F)n2)ncc1F tested_target="soluble guanylate cyclase (sGC) (Homo sapiens, UniProt Q02108+Q02153)" measured="100 to 1000 nM"
compound=Cc1nnc(Nc2nc(-c3cc(-c4ccon4)n(Cc4ccccc4F)n3)ncc2F)o1 tested_target="soluble guanylate cyclase (sGC) (Homo sapiens, UniProt Q02108+Q02153)" measured="100 to 1000 nM"
compound=O=C(CCNc1nc(-c2cc(-c3ccon3)n(Cc3ccccc3F)n2)ncc1F)OCCN1CCOCC1 tested_target="soluble guanylate cyclase (sGC) (Homo sapiens, UniProt Q02108+Q02153)" measured="100 to 1000 nM"
compound=CCCS(=O)(=O)Nc1nc(-c2cc(C(C)=O)n(Cc3ccccc3F)n2)ncc1F tested_target="soluble guanylate cyclase (sGC) (Homo sapiens, UniProt Q02108+Q02153)" measured="> 1000 nM"

src = patent US20190284168A1
